Target: Nuclear factor erythroid 2-related factor 2 (Homo sapiens)
Assay: Activation of Nrf2 (unknown origin) expressed in human HepG2 cells at 15 uM after 5 hrs by ARE-driven luciferase reporter gene assay relative to control
Type: cell-based
The source made the active and inactive calls. The calls are words filed in the database; no cut-off is given here.
// one of active, inactive, no free text

[[record]]
smiles_structure = "CN(C)c1ccc(/C=C/C(=O)/C=C/c2ccc(N(C)C)cc2)cc1"
study_target = "Nuclear factor erythroid 2-related factor 2 (Homo sapiens)"
classification = "inactive"


# lookup: test call for CN1C/C(=C\c2cccc(C(F)(F)F)c2)C(=O)/C(=C/c2cccc(C(F)(F)F)c2)C1
active

# lookup: test call for O=C(/C=C/c1ccccc1)/C=C/c1ccccc1
active

# lookup: test call for O=C(CCc1ccccc1)CCc1ccccc1
inactive

# lookup: test call for CC(C)c1ccc(/C=C2\CN(C)C/C(=C\c3ccc(C(C)C)cc3)C2=O)cc1
active

# lookup: test call for CN(C)c1ccc(/C=C/C(=O)CC(=O)/C=C/c2ccc(N(C)C)cc2)cc1
inactive

# lookup: test call for O=C(/C=C/c1ccccc1Cl)/C=C/c1ccccc1Cl
active

# lookup: test call for CN1C/C(=C\c2cccc(Br)c2)C(=O)/C(=C/c2cccc(Br)c2)C1
active

# lookup: test call for COc1ccc(OC)c(/C=C/C(=O)CC(=O)/C=C/c2cc(OC)ccc2OC)c1
active

# lookup: test call for COc1ccc(/C=C/C(=O)CC(=O)/C=C/c2ccc(OC)cc2OC)c(OC)c1
active

# lookup: test call for COc1cc(/C=C2\CN(C)C/C(=C\c3cc(OC)c(OC)c(OC)c3)C2=O)cc(OC)c1OC
inactive

---

Molecular target: Nuclear factor erythroid 2-related factor 2 (Homo sapiens)
Experiment: Activation of Nrf2 (unknown origin) expressed in human HepG2 cells at 15 uM after 5 hrs by ARE-driven luciferase reporter gene assay relative to control
Type: cell-based
Calls of active or inactive are those of the source. No cut-off for these calls is given here.
// one of true = active, false = inactive, no free text

# lookup: test call for O=C(/C=C/c1ccc(Br)cc1)CC(=O)/C=C/c1ccc(Br)cc1
false

# lookup: test call for COc1cccc(/C=C/C(=O)CC(=O)/C=C/c2cccc(OC)c2)c1
true

# lookup: test call for O=C(O)c1ccc(/C=C/C(=O)c2ccccc2)cc1
true

# lookup: test call for O=C(/C=C/c1ccc(Br)cc1)/C=C/c1ccc(Br)cc1
false

# lookup: test call for COc1cccc(/C=C2\CCC/C(=C\c3cccc(OC)c3)C2=O)c1
true

# lookup: test call for O=C1/C(=C/c2c(Cl)cccc2Cl)CCC/C1=C\c1c(Cl)cccc1Cl
true

---

Molecular target: Nuclear factor erythroid 2-related factor 2 (Homo sapiens)
Assay: Activation of Nrf2 (unknown origin) expressed in human HepG2 cells at 15 uM after 5 hrs by ARE-driven luciferase reporter gene assay relative to control
Format: cell-based
Active and inactive are the calls of the source. No cut-off for these calls is given here.
// one of active, inactive, no free text

Solved entries (count: 3):
[[record]]
smiles_structure = "O=C(/C=C/c1ccccc1C(F)(F)F)/C=C/c1ccccc1C(F)(F)F"
classification = "inactive"

[[record]]
smiles_structure = "CCc1c(/C=C/C(=O)/C=C/c2ccc(OC)c(OC)c2CC)ccc(OC)c1OC"
classification = "active"

[[record]]
smiles_structure = "COc1ccc(/C=C2\\CCC/C(=C\\c3ccc(OC)cc3OC)C2=O)c(OC)c1"
classification = "inactive"


Continue with the next molecule.
# lookup: test call for O=C(/C=C/c1ccccc1)C(Cc1ccccc1)(Cc1ccccc1)C(=O)/C=C/c1ccccc1
active

---

Target: Nuclear factor erythroid 2-related factor 2 (Homo sapiens)
Assay: Activation of Nrf2 (unknown origin) expressed in human HepG2 cells at 15 uM after 5 hrs by ARE-driven luciferase reporter gene assay relative to control
Assay type: cell-based
The source made the active and inactive calls. The calls are words filed in the database; no cut-off is given here.
// one of 1 = active, 0 = inactive, no free text

Solved entries (count: 5):
[[record]]
smiles_structure = "Cc1cccc(/C=C2\\CN(C)C/C(=C\\c3cccc(C)c3)C2=O)c1"
study_target = "Nuclear factor erythroid 2-related factor 2 (Homo sapiens)"
classification = 1

[[record]]
smiles_structure = "COc1cc(/C=C/C(=O)CC(=O)/C=C/c2cc(OC)cc(OC)c2)cc(OC)c1"
study_target = "Nuclear factor erythroid 2-related factor 2 (Homo sapiens)"
classification = 1

[[record]]
smiles_structure = "O=C(/C=C/c1cccc([N+](=O)[O-])c1)CC(=O)/C=C/c1cccc([N+](=O)[O-])c1"
study_target = "Nuclear factor erythroid 2-related factor 2 (Homo sapiens)"
classification = 0

[[record]]
smiles_structure = "O=C(/C=C/c1ccc(Cl)cc1)/C=C/c1ccc(Cl)cc1"
study_target = "Nuclear factor erythroid 2-related factor 2 (Homo sapiens)"
classification = 0

[[record]]
smiles_structure = "COc1ccc(/C=C/C(=O)CC(=O)/C=C/c2ccc(OC)c(O)c2)cc1O"
study_target = "Nuclear factor erythroid 2-related factor 2 (Homo sapiens)"
classification = 1


# lookup: test call for COc1ccc(/C=C/C(=O)CC(=O)/C=C/c2ccc(OC)cc2)cc1
1

# lookup: test call for O=C(/C=C/c1c(Cl)cccc1Cl)/C=C/c1c(Cl)cccc1Cl
0

# lookup: test call for O=C(/C=C/c1ccc(O)cc1)CC(=O)/C=C/c1ccc(O)cc1
1

# lookup: test call for COc1ccccc1/C=C1\CCC/C(=C\c2ccccc2OC)C1=O
0

# lookup: test call for O=C(/C=C/c1cccc(O)c1)CC(=O)/C=C/c1cccc(O)c1
1

---

Biological target: Nuclear factor erythroid 2-related factor 2 (Homo sapiens)
Test: Activation of Nrf2 (unknown origin) expressed in human HepG2 cells at 15 uM after 5 hrs by ARE-driven luciferase reporter gene assay relative to control
Format: cell-based
Measurement name: fold change (FC)
// print number alone

Solved cases (2 shown):
[[record]]
compound = "COc1cc(/C=C2\\CCC/C(=C\\c3cc(OC)cc(OC)c3)C2=O)cc(OC)c1"
study_target = "Nuclear factor erythroid 2-related factor 2 (Homo sapiens)"
measurement_name = "fold change (FC)"
observed_value = 22.1

[[record]]
compound = "O=C(/C=C/c1ccccc1O)/C=C/c1ccccc1O"
study_target = "Nuclear factor erythroid 2-related factor 2 (Homo sapiens)"
measurement_name = "fold change (FC)"
observed_value = 18.5


Which fold change (FC) is listed for COc1cc(/C=C/C(=O)CC(=O)/C=C/c2ccc(O)c(OC)c2)ccc1O [CURCUMIN] ?
22.6

Which fold change (FC) is listed for COc1cc(OC)c(OC)cc1/C=C/C(=O)/C=C/c1cc(OC)c(OC)cc1OC ?
18.2

Which fold change (FC) is listed for COc1cc(/C=C/C(=O)/C=C/c2ccc(O)c(OC)c2)ccc1O ?
25.1

Which fold change (FC) is listed for Cc1ccc(C(=O)/C=C/c2ccccc2)c(C)c1 ?
29.9

---

Target: Nuclear factor erythroid 2-related factor 2 (Homo sapiens)
Assay: Activation of Nrf2 (unknown origin) expressed in human HepG2 cells at 15 uM after 5 hrs by ARE-driven luciferase reporter gene assay relative to control
Type: cell-based
Active and inactive are the calls of the source. The rule behind the calls is not given here.
Measurement name: Activity

[[record]]
smiles_structure = "Cc1ccc(/C=C/C(=O)CC(=O)/C=C/c2ccc(C)cc2)cc1"
measurement_name = "Activity"
observed_value = "inactive"

[[record]]
smiles_structure = "O=C(/C=C/c1ccc(Cl)cc1)CC(=O)/C=C/c1ccc(Cl)cc1"
measurement_name = "Activity"
observed_value = "inactive"

[[record]]
smiles_structure = "O=C(/C=C/c1ccccc1)c1ccccc1"
measurement_name = "Activity"
observed_value = "Active"

[[record]]
smiles_structure = "COc1cc(C(=O)/C=C/c2ccccc2)ccc1O"
measurement_name = "Activity"
observed_value = "Active"

[[record]]
smiles_structure = "O=C(/C=C/c1cccc(Cl)c1)/C=C/c1cccc(Cl)c1"
measurement_name = "Activity"
observed_value = "inactive"

[[record]]
smiles_structure = "COc1cc(/C=C/C(=O)c2ccc(O)c(OC)c2)ccc1O"
measurement_name = "Activity"
observed_value = "Active"


Moving on to another compound below.
Which Activity is listed for COc1ccc(/C=C2\CCC/C(=C\c3ccc(OC)cc3)C2=O)cc1 ?
inactive
